Dmax values, listed per item
# TARGET UNDER TEST: CBP (Homo sapiens, UniProt Q92793)
# Construct: endogenous in cells; host or cells: 22Rv1 (ATCC CRL-2505) human prostate cancer cells
# Sequence (Q92793 whole entry): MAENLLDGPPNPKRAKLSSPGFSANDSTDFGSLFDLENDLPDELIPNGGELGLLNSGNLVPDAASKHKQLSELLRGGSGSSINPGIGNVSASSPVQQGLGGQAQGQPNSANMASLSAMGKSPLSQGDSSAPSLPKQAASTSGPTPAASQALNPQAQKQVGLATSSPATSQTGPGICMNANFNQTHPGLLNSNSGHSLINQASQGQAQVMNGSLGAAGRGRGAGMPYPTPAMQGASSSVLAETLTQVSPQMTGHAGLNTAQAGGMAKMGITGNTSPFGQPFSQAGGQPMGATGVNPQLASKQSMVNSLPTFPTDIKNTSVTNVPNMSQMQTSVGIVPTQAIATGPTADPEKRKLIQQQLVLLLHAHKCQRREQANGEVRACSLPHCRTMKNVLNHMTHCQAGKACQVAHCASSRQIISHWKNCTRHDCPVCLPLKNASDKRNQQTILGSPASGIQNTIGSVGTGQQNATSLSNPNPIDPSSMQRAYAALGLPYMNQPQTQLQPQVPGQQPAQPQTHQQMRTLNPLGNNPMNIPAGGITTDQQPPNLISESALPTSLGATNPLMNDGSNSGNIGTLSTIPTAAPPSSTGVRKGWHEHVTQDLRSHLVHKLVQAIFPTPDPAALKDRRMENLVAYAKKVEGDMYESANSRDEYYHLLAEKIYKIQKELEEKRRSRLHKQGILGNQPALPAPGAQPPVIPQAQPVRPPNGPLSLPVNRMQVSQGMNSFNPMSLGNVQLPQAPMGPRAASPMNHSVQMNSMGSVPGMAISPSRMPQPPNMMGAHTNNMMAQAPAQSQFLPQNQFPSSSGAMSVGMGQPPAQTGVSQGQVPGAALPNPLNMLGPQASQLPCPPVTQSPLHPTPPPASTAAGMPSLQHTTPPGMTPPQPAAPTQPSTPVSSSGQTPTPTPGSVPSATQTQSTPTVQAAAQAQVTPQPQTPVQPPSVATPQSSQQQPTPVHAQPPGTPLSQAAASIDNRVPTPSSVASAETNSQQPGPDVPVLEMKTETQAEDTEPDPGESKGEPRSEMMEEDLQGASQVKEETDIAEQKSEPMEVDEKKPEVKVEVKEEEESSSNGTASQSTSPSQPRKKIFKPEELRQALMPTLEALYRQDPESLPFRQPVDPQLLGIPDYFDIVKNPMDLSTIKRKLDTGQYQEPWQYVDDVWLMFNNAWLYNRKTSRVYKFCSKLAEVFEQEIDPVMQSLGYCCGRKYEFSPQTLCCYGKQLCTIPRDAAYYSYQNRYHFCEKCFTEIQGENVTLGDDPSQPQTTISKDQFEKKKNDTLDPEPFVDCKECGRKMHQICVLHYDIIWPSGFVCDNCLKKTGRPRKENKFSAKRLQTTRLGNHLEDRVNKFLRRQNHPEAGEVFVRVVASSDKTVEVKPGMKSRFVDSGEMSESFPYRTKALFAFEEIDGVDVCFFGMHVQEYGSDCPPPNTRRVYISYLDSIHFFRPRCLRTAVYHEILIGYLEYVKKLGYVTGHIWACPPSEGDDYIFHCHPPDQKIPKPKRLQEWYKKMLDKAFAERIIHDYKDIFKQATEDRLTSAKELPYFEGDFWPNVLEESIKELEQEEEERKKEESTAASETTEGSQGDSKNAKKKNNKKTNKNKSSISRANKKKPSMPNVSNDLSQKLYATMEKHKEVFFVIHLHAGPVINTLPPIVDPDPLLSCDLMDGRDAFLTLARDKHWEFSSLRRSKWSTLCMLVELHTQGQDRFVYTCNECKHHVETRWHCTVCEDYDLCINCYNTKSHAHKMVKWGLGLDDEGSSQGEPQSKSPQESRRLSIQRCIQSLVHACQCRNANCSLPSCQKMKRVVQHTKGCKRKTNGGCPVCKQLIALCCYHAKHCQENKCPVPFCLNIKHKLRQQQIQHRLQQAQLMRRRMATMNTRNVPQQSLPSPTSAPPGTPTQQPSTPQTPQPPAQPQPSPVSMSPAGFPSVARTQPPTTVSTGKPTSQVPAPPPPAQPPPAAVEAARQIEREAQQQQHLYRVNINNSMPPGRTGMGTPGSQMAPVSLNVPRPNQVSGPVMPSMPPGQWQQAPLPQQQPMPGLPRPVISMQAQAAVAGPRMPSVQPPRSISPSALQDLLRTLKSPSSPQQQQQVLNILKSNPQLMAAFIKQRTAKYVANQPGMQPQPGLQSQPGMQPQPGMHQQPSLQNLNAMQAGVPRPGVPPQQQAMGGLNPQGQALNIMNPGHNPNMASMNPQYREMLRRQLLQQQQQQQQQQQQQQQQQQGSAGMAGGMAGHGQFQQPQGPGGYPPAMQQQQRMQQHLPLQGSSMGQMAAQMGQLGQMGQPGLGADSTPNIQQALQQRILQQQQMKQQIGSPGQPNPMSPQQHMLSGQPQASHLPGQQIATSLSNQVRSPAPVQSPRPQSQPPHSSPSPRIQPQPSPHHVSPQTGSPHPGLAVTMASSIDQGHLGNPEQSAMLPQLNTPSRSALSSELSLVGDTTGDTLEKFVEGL
# PROTOCOL SUMMARY: CBP degradation in 22Rv1 cells (5 h)
# Type: cell-based
# TEST CONTEXT: 22Rv1, 5 h, 22Rv1 cells, 5 h; read-out: CBP Degradation (22Rv1, 5 h) DCmax

CC(=O)N1CCc2c(c(N3CCCc4cc(-c5cnn(CCCCCN6Cc7cc8c(cc7C6)C(=O)N(C6CCC(=O)NC6=O)C8=O)c5)c(C(F)F)cc43)nn2C2CCOCC2)C1 (centres unmarked)    > 90%
CC(=O)c1cc2c(cc1C(F)F)N(c1nn(C3CCN(C(=O)CN4CCc5cc6c(cc5C4)C(=O)N(C4CCC(=O)NC4=O)C6=O)CC3)c3c1CN(C(C)=O)CC3)CCC2 (centres unmarked)    < 50%
CC(=O)N1CCc2c(ccc3c2CCCN3c2nn(C3CCN(C(=O)CN4Cc5cc6c(cc5C4)C(=O)N(C4CCC(=O)NC4=O)C6=O)CC3)c3c2CN(C(C)=O)CC3)C1 (centres unmarked)    < 50%

Lookup: Give reported Dmax value for CC(=O)N1CCc2c(c(N3CCCc4cc(-c5cnn(C)c5)c(C(F)F)cc43)nn2C2CCN(C(=O)CN3CCc4cc5c(cc4C3)C(=O)N(C3CCC(=O)NC3=O)C5=O)CC2)C1 (centres unmarked)
Found: > 90%

Lookup: In one line, give reported Dmax of the entry CC(=O)N1CCc2c(c(N3CCCc4cc(-c5cccs5)c(C(F)F)cc43)nn2C2CCN(C(=O)CN3Cc4cc5c(cc4C3)C(=O)N(C3CCC(=O)NC3=O)C5=O)CC2)C1 (centres unmarked) .
Found: > 90%

====

# TARGET UNDER TEST: P300 (Homo sapiens)
# Construct: endogenous in cells; host or cells: 22Rv1 (ATCC CRL-2505) human prostate cancer cells
# PROTOCOL SUMMARY: P300 degradation in 22Rv1 cells (5 h)
# Assay type: cell-based
# TEST CONTEXT: 22Rv1 cells, 5 h
Reported DC50 values are given for each entry in this list.

CC(=O)N1CCc2c(c(N3CCCc4cc5c(cc43)CCCC5)nn2C2CCN(C(=O)CN3Cc4cc5c(cc4C3)C(=O)N(C3CCC(=O)NC3=O)C5=O)CC2)C1 (centres unmarked)    < 10 nM

Lookup: Give the value of DC50 reported for the following: CC(=O)N1CCc2c(c(-c3cccc4ccncc34)nn2C2CCN(C(=O)CN3Cc4cc5c(cc4C3)C(=O)N(C3CCC(=O)NC3=O)C5=O)CC2)C1 (centres unmarked)
Found: > 1000 nM

Lookup: Give DC50 for Cc1noc(C)c1-c1ccc2c(c1)nc([C@@H]1CCCC(=O)N1c1ccc(F)c(F)c1)n2C1CCN(C(=O)CCN2Cc3cc4c(cc3C2)C(=O)N(C2CCC(=O)NC2=O)C4=O)CC1 (some centres unmarked)
Found: > 1000 nM

Lookup: Return the recorded DC50 value; entry: CC(=O)N1CCc2c(c(N3CCCc4cc(-c5ccc(F)cc5)c(C(F)F)cc43)nn2C2CCN(C(=O)CN3Cc4cc5c(cc4C3)C(=O)N(C3CCC(=O)NC3=O)C5=O)CC2)C1 (centres unmarked)
Found: < 10 nM

Lookup: Check the records and state DC50 for CC(=O)N1CCc2c(c(N3CCCc4cc(Br)c(C(F)F)cc43)nn2C2CCN(C(=O)CN3Cc4cc5c(cc4C3)C(=O)N(C3CCC(=O)NC3=O)C5=O)CC2)C1 (centres unmarked)
Found: > 1000 nM

====

# TARGET UNDER TEST: CBP (Homo sapiens, UniProt Q92793)
# Construct: endogenous in cells; host or cells: 22Rv1 (ATCC CRL-2505) human prostate cancer cells
# PROTOCOL SUMMARY: CBP degradation in 22Rv1 cells (5 h)
# Format: cell-based
# TEST CONTEXT: 22Rv1 cells, 5 h
# Source text: Biological Assays. […] Cells with 3-8 passages after purchase were used in experiments.
Collected DC50 values appear next to each entry.

Previously resolved entries follow.
CC(=O)N1CCc2c(c(N3CCCc4cc(-c5cnn(C)c5)c(C(F)F)cc43)nn2C2CCN(C(=O)CN3CCc4cc5c(cc4C3)C(=O)N(C3CCC(=O)NC3=O)C5=O)CC2)C1 (centres unmarked)    < 10 nM
CC(=O)N1CCc2c(c(N3CCCc4cc(-c5cnn(C)c5)c(C(F)F)cc43)nn2C2CCC(N3CCc4cc5c(cc4C3)C(=O)N(C3CCC(=O)NC3=O)C5=O)CC2)C1 (centres unmarked)    < 10 nM
CC(=O)N1CCc2c(c(N3CCCc4cc(-c5cnn(C)c5)c(C(F)F)cc43)nn2C2CCC(CC(=O)N3Cc4cc5c(cc4C3)C(=O)N(C3CCC(=O)NC3=O)C5=O)CC2)C1 (centres unmarked)    > 1000 nM
CC(=O)N1CCc2c(c(N3CCCc4cc(-c5cnn(C)c5)c(C(F)F)cc43)nn2C2CCN(CC(=O)N3Cc4cc5c(cc4C3)C(=O)N(C3CCC(=O)NC3=O)C5=O)CC2)C1 (centres unmarked)    < 10 nM

Lookup: Note down DC50 recorded for CC(=O)N1CCc2c(c(N3CCCc4cc(-c5cnn(CCCCCN6CCc7cc8c(cc7C6)C(=O)N(C6CCC(=O)NC6=O)C8=O)c5)c(C(F)F)cc43)nn2C2CCOCC2)C1 (centres unmarked)
Found: < 10 nM

====

# TARGET UNDER TEST: P300 (Homo sapiens, UniProt Q09472)
# Construct: endogenous in cells; host or cells: 22Rv1 (ATCC CRL-2505) human prostate cancer cells
# Sequence (Q09472 whole entry): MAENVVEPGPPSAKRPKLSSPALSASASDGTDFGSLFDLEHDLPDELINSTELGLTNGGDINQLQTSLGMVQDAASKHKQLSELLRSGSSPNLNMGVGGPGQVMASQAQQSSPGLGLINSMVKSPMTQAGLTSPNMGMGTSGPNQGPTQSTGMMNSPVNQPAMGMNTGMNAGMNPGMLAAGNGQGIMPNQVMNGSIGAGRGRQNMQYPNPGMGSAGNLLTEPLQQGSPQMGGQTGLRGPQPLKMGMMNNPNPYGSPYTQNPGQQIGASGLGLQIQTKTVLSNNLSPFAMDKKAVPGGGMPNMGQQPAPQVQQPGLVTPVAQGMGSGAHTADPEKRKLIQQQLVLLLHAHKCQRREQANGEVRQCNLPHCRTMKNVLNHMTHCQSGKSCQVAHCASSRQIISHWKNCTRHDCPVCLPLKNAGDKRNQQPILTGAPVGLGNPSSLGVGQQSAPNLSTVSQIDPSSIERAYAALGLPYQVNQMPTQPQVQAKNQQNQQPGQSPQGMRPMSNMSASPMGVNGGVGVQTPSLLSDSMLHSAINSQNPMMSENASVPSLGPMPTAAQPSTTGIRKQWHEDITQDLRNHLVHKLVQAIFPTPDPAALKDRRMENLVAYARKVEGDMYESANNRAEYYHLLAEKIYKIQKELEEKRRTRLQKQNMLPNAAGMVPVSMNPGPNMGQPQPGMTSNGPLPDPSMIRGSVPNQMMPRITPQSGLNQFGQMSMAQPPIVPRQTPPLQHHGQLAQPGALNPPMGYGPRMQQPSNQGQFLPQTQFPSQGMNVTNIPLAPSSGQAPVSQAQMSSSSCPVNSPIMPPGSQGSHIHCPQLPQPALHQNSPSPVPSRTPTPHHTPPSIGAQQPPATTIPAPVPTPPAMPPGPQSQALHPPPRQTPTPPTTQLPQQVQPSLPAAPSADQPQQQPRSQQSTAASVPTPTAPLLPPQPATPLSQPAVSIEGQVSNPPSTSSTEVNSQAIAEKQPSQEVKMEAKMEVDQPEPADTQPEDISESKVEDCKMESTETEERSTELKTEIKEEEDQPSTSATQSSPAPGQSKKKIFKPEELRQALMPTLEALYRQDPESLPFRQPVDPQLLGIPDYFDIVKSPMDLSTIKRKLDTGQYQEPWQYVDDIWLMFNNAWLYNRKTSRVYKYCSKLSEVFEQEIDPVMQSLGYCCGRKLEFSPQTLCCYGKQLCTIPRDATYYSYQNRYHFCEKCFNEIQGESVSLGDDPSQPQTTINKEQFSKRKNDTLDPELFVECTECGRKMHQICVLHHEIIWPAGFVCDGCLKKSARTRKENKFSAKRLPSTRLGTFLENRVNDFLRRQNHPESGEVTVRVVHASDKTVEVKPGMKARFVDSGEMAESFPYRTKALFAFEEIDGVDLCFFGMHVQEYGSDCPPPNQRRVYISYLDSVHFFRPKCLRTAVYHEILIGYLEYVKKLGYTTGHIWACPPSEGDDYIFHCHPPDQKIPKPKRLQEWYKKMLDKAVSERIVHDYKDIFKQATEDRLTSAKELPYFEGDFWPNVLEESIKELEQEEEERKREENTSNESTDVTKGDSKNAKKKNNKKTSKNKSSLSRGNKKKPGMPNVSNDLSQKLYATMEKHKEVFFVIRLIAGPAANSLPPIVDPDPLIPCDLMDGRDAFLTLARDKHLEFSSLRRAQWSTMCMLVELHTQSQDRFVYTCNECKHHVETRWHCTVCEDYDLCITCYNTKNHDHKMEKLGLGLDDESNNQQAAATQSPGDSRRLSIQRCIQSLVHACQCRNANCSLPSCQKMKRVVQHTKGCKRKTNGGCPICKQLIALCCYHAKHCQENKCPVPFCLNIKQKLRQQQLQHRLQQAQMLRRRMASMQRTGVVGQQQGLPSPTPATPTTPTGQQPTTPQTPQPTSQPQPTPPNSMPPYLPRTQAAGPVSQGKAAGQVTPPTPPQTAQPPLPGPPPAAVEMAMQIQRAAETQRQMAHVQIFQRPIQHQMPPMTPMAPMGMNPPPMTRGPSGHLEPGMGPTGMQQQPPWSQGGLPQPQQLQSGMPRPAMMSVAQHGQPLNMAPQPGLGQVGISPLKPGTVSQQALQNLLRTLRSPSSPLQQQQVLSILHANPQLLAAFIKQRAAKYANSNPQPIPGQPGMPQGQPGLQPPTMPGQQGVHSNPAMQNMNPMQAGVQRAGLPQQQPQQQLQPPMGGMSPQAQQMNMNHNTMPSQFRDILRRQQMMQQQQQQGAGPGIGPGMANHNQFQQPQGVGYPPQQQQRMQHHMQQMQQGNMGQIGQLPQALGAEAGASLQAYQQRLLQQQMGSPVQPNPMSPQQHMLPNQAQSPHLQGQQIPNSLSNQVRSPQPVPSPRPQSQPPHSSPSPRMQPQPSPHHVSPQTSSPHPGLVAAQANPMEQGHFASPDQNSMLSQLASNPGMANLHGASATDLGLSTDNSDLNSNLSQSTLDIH
# PROTOCOL SUMMARY: P300 degradation in 22Rv1 cells (5 h)
# Assay type: cell-based
# TEST CONTEXT: 22Rv1 cells, 5 h; read-out: P300 Degradation (22Rv1, 5 h) DCmax
We begin with a simple list: items and their reported Dmax.

Cc1noc(C)c1-c1ccc2c(c1)nc([C@@H]1CCCC(=O)N1c1ccc(F)c(F)c1)n2C1CCN(C(=O)CN2CCc3cc4c(cc3C2)C(=O)N(C2CCC(=O)NC2=O)C4=O)CC1 (some centres unmarked)    < 50%
CC(=O)N1CCc2c(c(N3CCCc4cc(C5CC5)c(C(F)F)cc43)nn2C2CCN(C(=O)CN3CCc4cc5c(cc4C3)C(=O)N(C3CCC(=O)NC3=O)C5=O)CC2)C1 (centres unmarked)    > 70%
CC(=O)N1CCc2c(c(N3CCCc4cc(-c5cnn(C)c5)c(C(F)F)cc43)nn2C2CCC(N3CCc4ccc5c(c4C3)C(=O)N(C3CCC(=O)NC3=O)C5=O)CC2)C1 (centres unmarked)    < 50%

Lookup: Recall the reported Dmax of CC(=O)N1CCc2c(c(N3CCCc4cc(-c5cccs5)c(C(F)F)cc43)nn2C2CCN(C(=O)CN3Cc4cc5c(cc4C3)C(=O)N(C3CCC(=O)NC3=O)C5=O)CC2)C1 (centres unmarked) on P300 (Homo sapiens, UniProt Q09472) and write it down.
Found: > 70%

Lookup: Look up and report Dmax, with P300 (Homo sapiens, UniProt Q09472) as system, for CC(=O)N1CCc2c(c(N3CCCc4cc(-c5cnn(C)c5)c(C(F)F)cc43)nn2C2CCC(N3CC4(Cc5cc6c(cc5C4)C(=O)N(C4CCC(=O)NC4=O)C6=O)C3)CC2)C1 (centres unmarked)
Found: > 70%

Lookup: # return Dmax for Cc1noc(C)c1-c1ccc2c(c1)nc([C@@H]1CCCC(=O)N1c1ccc(F)c(F)c1)n2C1CCN(C(=O)CN2Cc3cc4c(cc3C2)C(=O)N(C2CCC(=O)NC2=O)C4=O)CC1 (some centres unmarked) , test system: P300 (Homo sapiens, UniProt Q09472)
Found: < 50%

Lookup: Give reported Dmax for Cc1noc(C)c1-c1ccc2c(c1)nc([C@@H]1CCCC(=O)N1c1ccc(F)c(F)c1)n2C1CCN(C(=O)CN2CCc3cc4c(cc3CC2)C(=O)N(C2CCC(=O)NC2=O)C4=O)CC1 (some centres unmarked) (P300 (Homo sapiens, UniProt Q09472))
Found: < 50%

Lookup: Report measured Dmax on P300 (Homo sapiens, UniProt Q09472); entry: CC(=O)N1CCc2c(c(-c3cccc4ccccc34)nn2C2CCN(C(=O)CN3CCc4cc5c(cc4C3)C(=O)N(C3CCC(=O)NC3=O)C5=O)CC2)C1 (centres unmarked)
Found: > 70%

Lookup: Fill in Dmax for CCc1cc2c(cc1C(F)F)N(c1nn(C3CCN(C(=O)CN4Cc5cc6c(cc5C4)C(=O)N(C4CCC(=O)NC4=O)C6=O)CC3)c3c1CN(C(C)=O)CC3)CCC2 (centres unmarked) tested with P300 (Homo sapiens, UniProt Q09472).
Found: > 70%

Lookup: Recall the reported Dmax of Cn1cc(-c2cc3c(cc2C(F)F)N(c2nn(C4CCN(C(=O)CN5Cc6cc7c(cc6C5)C(=O)N(C5CCC(=O)NC5=O)C7=O)CC4)c4c2CN(CC(F)(F)F)CC4)CCC3)cn1 (centres unmarked) when tested on P300 (Homo sapiens, UniProt Q09472).
Found: < 50%

Lookup: // fetch Dmax for CC(=O)N1CCc2c(c(N3CCCc4cc(C5CC5)c(C(F)F)cc43)nn2C2CCN(C(=O)CN3Cc4cc5c(cc4C3)C(=O)N(C3CCC(=O)NC3=O)C5=O)CC2)C1 (centres unmarked) ; system: P300 (Homo sapiens, UniProt Q09472)
Found: > 90%

Lookup: Enter measured Dmax, system P300 (Homo sapiens, UniProt Q09472), for the molecule shown: CC(=O)N1Cc2c(N3CCCc4cc(-c5cnn(C)c5)c(C(F)F)cc43)nn(C3CCN(C(=O)CN4Cc5cc6c(cc5C4)C(=O)N(C4CCC(=O)NC4=O)C6=O)CC3)c2C(C)(C)C1 (centres unmarked)
Found: < 50%

Lookup: Provide Dmax, recorded with P300 (Homo sapiens, UniProt Q09472), of Cc1noc(C)c1-c1ccc2c(c1)nc([C@@H]1CCCC(=O)N1c1ccc(F)c(F)c1)n2C1CCN(C(=O)CCCN2Cc3cc4c(cc3C2)C(=O)N(C2CCC(=O)NC2=O)C4=O)CC1 (some centres unmarked)
Found: < 50%

Lookup: Print P300 (Homo sapiens, UniProt Q09472) Dmax for CC(=O)N1Cc2c(N3CCCc4cc(-c5ccnn5C)c(C(F)F)cc43)nn(C3CCN(C(=O)CN4Cc5cc6c(cc5C4)C(=O)N(C4CCC(=O)NC4=O)C6=O)CC3)c2C(C)(C)C1 (centres unmarked) .
Found: < 50%

Lookup: // output Dmax; input CC(=O)N1CCc2c(c(N3CCCc4cc(-c5ccc(F)cc5)c(C(F)F)cc43)nn2C2CCN(C(=O)CN3Cc4cc5c(cc4C3)C(=O)N(C3CCC(=O)NC3=O)C5=O)CC2)C1 (centres unmarked) ; system P300 (Homo sapiens, UniProt Q09472)
Found: > 70%

Lookup: Look up and report Dmax, with P300 (Homo sapiens, UniProt Q09472) as system, for CC(=O)N1CCc2c(c(N3CCCc4cc(C)c(C(F)F)cc43)nn2C2CCN(C(=O)CN3Cc4cc5c(cc4C3)C(=O)N(C3CCC(=O)NC3=O)C5=O)CC2)C1 (centres unmarked)
Found: > 70%
